Tested on: SNB-19 CNS
protocol.summary: NCI-60 one-dose screen, 48 h (100 = growth as untreated, 0 = no growth, -100 = all killed)
measurement.setup: 10 µM unless noted
Protocol: Growth inhibition of the SNB-19 human tumor cell line is measured as a screen for anti-cancer activity. Cells are grown in 96 well plates and exposed to the test compound for 48 hours. Compounds are tested at a single concentration, which is 10^-5 M for most compounds. The reported endpoint is percent growth (GI% or GIPRCNT), where numbers from 0 - 100% represent growth inhibition, and numbers from -100% - 0 represent cell death. For example, a value of 40 represents 60% growth inhibition. […]
This is part of a sample that, as a whole, favours compounds with a hit. Of some 83,000 tested, about 20% had one in any assay.
property.name: growth (%)

[[record]]
item_smiles = "NC(=O)c1cccc(-n2ccc3cc(NC(=O)Nc4ccc(Cl)c(Cl)c4)ccc32)n1"
reported_result = 86.3

[[record]]
item_smiles = "CCN(CC)CCCNc1ccc(C)c2sc3ccccc3c(=O)c12"
reported_result = 46.7

[[record]]
item_smiles = "COc1cc(-c2nc(Nc3nc4ccccc4[nH]3)nc(N)c2C#N)cc(OC)c1OC"
reported_result = 69.2


----------
Test system: A549/ATCC NSCLC
protocol.summary: NCI-60 one-dose screen, 48 h (100 = growth as untreated, 0 = no growth, -100 = all killed)
measurement.setup: 10 µM unless noted
Compounds without any hit were thinned out: in the full panel of roughly 83,000, 20% have a hit.
property.name: growth (%)

[[record]]
compound = "COc1ccc(-c2nc3sc(C)cn3c2/C=C/C(=O)c2cc(OC)c(OC)c(OC)c2)cc1"
target = "A549/ATCC NSCLC"
property_name = "growth"
reported_result = 57.1

[[record]]
compound = "Clc1ccc2c(c1)C[C@H]1C[C@@H](c3cccs3)N2O1"
target = "A549/ATCC NSCLC"
property_name = "growth"
reported_result = 98.2

[[record]]
compound = "Cc1nc2cc(Nc3nc(NCCN)nc(Nc4ccc(F)cc4)n3)ccc2n1Cc1ccccc1"
target = "A549/ATCC NSCLC"
property_name = "growth"
reported_result = 83.9

[[record]]
compound = "COc1ccc(S(=O)(=O)ON=C2C=C(C)C(=O)C(C)=C2)cc1"
target = "A549/ATCC NSCLC"
property_name = "growth"
reported_result = 105

[[record]]
compound = "O=S(=O)(Nc1ncccn1)c1ccc(Nc2ccc3nnc(-c4ccncc4)n3n2)cc1"
target = "A549/ATCC NSCLC"
property_name = "growth"
reported_result = 104

[[record]]
compound = "O=C(NCc1ccc(F)cc1)C1CN(c2ccc(Cl)cc2)N(c2ccc(Cl)cc2)C1=O (stereo not given)"
target = "A549/ATCC NSCLC"
property_name = "growth"
reported_result = 48.8

[[record]]
compound = "Cn1c2ccccc2c2nn(C(=O)c3ccccc3)c(=O)nc21"
target = "A549/ATCC NSCLC"
property_name = "growth"
reported_result = 116

[[record]]
compound = "O/N=C/c1cccs1"
target = "A549/ATCC NSCLC"
property_name = "growth"
reported_result = 98

[[record]]
compound = "COc1cccc(C2CC(=O)Nc3cc4c(cc32)OCO4)c1OC (stereo not given)"
target = "A549/ATCC NSCLC"
property_name = "growth"
reported_result = 89.8

[[record]]
compound = "COc1ccc(Sc2ccc3[nH]c(=O)nc(N)c3c2)cc1"
target = "A549/ATCC NSCLC"
property_name = "growth"
reported_result = 80.3

[[record]]
compound = "Nc1nc(N)c(N=Nc2c(Br)cc(S(N)(=O)=O)cc2Br)c(N)n1"
target = "A549/ATCC NSCLC"
property_name = "growth"
reported_result = 97.4

[[record]]
compound = "COc1cc(C(=O)/C=C/c2c(-c3cccs3)nc3sccn23)cc(OC)c1OC"
target = "A549/ATCC NSCLC"
property_name = "growth"
reported_result = -3.26

[[record]]
compound = "CN1CCN(c2nc(-c3ccncc3)nc3sc4c(c23)CCCCCC4)CC1"
target = "A549/ATCC NSCLC"
property_name = "growth"
reported_result = 69

[[record]]
compound = "CCCCOC(=O)C1OC(Oc2ccc3c(C)cc(=O)oc3c2)[C@@H](OC(C)=O)C(OC(C)=O)C1OC(C)=O (stereo not given in full)"
target = "A549/ATCC NSCLC"
property_name = "growth"
reported_result = 96.3

[[record]]
compound = "O=C(CCc1nnc2sc(/C=C\\c3ccccc3)nn12)c1nc2ccccc2[nH]1"
target = "A549/ATCC NSCLC"
property_name = "growth"
reported_result = 97.5

[[record]]
compound = "COc1ccc(NC(=O)c2ccc3c(c2)nc(-c2ccc(Cl)cc2)n3-c2cc(C(C)(C)C)[nH]n2)cc1"
target = "A549/ATCC NSCLC"
property_name = "growth"
reported_result = 79.7

[[record]]
compound = "C=CC(=O)N1CC2(CC(n3nc(-c4ccc(Oc5ccccc5)cc4)c4c(N)ncnc43)C2)C1"
target = "A549/ATCC NSCLC"
property_name = "growth"
reported_result = 39.2

[[record]]
compound = "COc1cc(C(F)(F)F)ccc1-c1cc(-c2ccc(F)cc2)n[nH]1"
target = "A549/ATCC NSCLC"
property_name = "growth"
reported_result = 64.9

[[record]]
compound = "O=[N+]([O-])c1cc2c(cc1Br)-c1ccccc1C2"
target = "A549/ATCC NSCLC"
property_name = "growth"
reported_result = 90.9

[[record]]
compound = "O=C(Nc1ccccc1)Oc1cccc2cccnc12"
target = "A549/ATCC NSCLC"
property_name = "growth"
reported_result = 93.3

[[record]]
compound = "O=c1onc(-c2ccccc2)c2ccccc12"
target = "A549/ATCC NSCLC"
property_name = "growth"
reported_result = 109

[[record]]
compound = "O=C(Nc1nc2ccccc2[nH]1)C(=O)Nc1nc2ccccc2[nH]1"
target = "A549/ATCC NSCLC"
property_name = "growth"
reported_result = 97.5

[[record]]
compound = "O=S(=O)(Nc1ccccc1Cl)c1ccc(-c2cnc(C3CC3)o2)cc1"
target = "A549/ATCC NSCLC"
property_name = "growth"
reported_result = 31.4

[[record]]
compound = "COCCOC1=C(Cl)C(=O)c2ccccc2C1=O"
target = "A549/ATCC NSCLC"
property_name = "growth"
reported_result = 21.6

[[record]]
compound = "Clc1ccc2c(N3CCN(c4ccnc(NC5CCCCC5)n4)CC3)ccnc2c1"
target = "A549/ATCC NSCLC"
property_name = "growth"
reported_result = 54.4

